Target or test system: MaxL homodimer (Homo sapiens, UniProt P61244 1-160)
Sequence (P61244 whole entry): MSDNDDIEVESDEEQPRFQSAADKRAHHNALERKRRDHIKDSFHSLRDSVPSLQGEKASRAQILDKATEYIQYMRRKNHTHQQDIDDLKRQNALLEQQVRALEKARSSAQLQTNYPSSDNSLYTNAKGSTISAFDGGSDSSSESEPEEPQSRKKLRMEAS
Test details: universal protein-binding microarray (PBM); PBS-based mixture, 10 nM His-tagged protein dimer, 2% milk, 200 ng/uL BSA, 50 ng/uL salmon testes DNA, 0.02% TX-100; detection with Alexa 488 anti-His antibody;; high values mean tight binding;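 also: fluorescence intensity normalized to that of the highest-ranked 8-mer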
Condition: protein: recombinant; tags: C-terminal His-tag (pET21a); chain copies: 2; dsDNA, one strand shown
Whole data set: some 33,000 sequences, median “normalized occupancy” near 0.075, cut for the highest 2% near 0.095. Only a selection was taken, and the highest values are over-represented in it overall.
Readout type: binding signal

CTAATGTC 0.0828 normalized occupancy
CAACCGTA 0.0753 normalized occupancy
ACAGCATG 0.127 normalized occupancy
TAAAGGAA 0.0741 normalized occupancy
ACAGCATC 0.0767 normalized occupancy
ATAGCATG 0.103 normalized occupancy
AGAGCATC 0.0755 normalized occupancy
AGAGCATG 0.0989 normalized occupancy
ATAGCATA 0.0872 normalized occupancy
ATAGCATC 0.0799 normalized occupancy

We next turn to a different sequence, shown below.
Task: Look up and report measured binding signal for this entry: GTTGAAGA
Result: 0.082 normalized occupancy
